Reported Pre-emergence Test LOLPE percentage damage (five point scale) values are given for each entry in this list.
- Test system: Lolium perenne (LOLPE)
- experiment: Pre-emergence herbicide test, glasshouse, percentage damage
- Format: in vivo
- testParameters: rate 500 g/ha, evaluated after 13 days

Completed entries (count: 5):
Fc1cnc(Oc2cccc(F)c2-c2cc(C(F)F)no2)c(F)c1 [Compound A10]
5 (5=81-100%)
Fc1cccc(Oc2cc(C(F)(F)F)ccn2)c1-c1cc(C(F)F)no1 [Compound A8]
1 (1=0-20%)
O=[N+]([O-])c1ccc(Oc2cccc(F)c2-c2cc(C(F)F)no2)nc1 [Compound A2]
4 (4=61-80%)
Fc1cccc(Oc2ncc(Cl)cc2Cl)c1-c1cc(C(F)F)no1 [Compound A4]
1 (1=0-20%)
Fc1cc(Cl)cnc1Oc1cccc(F)c1-c1cc(C(F)F)no1 [Compound A1]
5 (5=81-100%)

In the following, a different molecule is considered.
Give the reported value of Pre-emergence Test LOLPE percentage damage (five point scale) for this record: Fc1cccc(Oc2ccc(Cl)cn2)c1-c1cc(C(F)F)no1 [Compound A9]
4 (4=61-80%)

---

- System: Setaria faberi (SETFA)
- experiment: Post-emergence herbicide test, glasshouse, percentage damage
- Type: in vivo
- testParameters: 500 g/ha, evaluated after 13 days
Reported percentage damage caused to the plant, SETFA values are given for each entry in this list.

Completed entries (count: 3):
N#Cc1ccc(Oc2cccc(F)c2-c2cc(C(F)F)no2)nc1
5 (5=81-100%)
Fc1cccc(Oc2ncc(Cl)cc2Cl)c1-c1cc(C(F)F)no1
3 (3=41-60%)
Fc1cccc(Oc2cccc(F)c2-c2cc(C(F)F)no2)n1
5 (5=81-100%)

Give the reported value of percentage damage caused to the plant, SETFA for this record: Fc1cnc(Oc2cccc(F)c2-c2cc(C(F)F)no2)c(F)c1
5 (5=81-100%)

Give the reported value of percentage damage caused to the plant, SETFA for this record: Fc1cc(Cl)cnc1Oc1cccc(F)c1-c1ncc(C(F)(F)F)o1
4 (4=61-80%)

---

- Test system: Solanum nigrum (SOLNI)
- experiment: Post-emergence herbicide test, glasshouse, percentage damage
- Type: in vivo
- testParameters: 1000 g/ha, evaluated after 13 days
Reported percentage damage caused to the plant, SOLNI values are given for each entry in this list.

Completed entries (count: 10):
FC(F)c1cc(-c2c(Br)cccc2Oc2ccc(C(F)(F)F)cn2)on1
4 (4=61-80%)
Fc1cc(Cl)cnc1Oc1ccc(Br)c(Br)c1-n1cc(C(F)(F)F)cn1
5 (5=81-100%)
Fc1cccc(Oc2cccc(Cl)c2-c2cc(C(F)F)no2)n1
5 (5=81-100%)
Fc1cccc(Oc2cccc(OC(F)F)n2)c1-c1cc(C(F)F)no1
5 (5=81-100%)
FC(F)c1cc(-c2c(Cl)cccc2Oc2cc(Cl)ccn2)on1
4 (4=61-80%)
N#Cc1cccnc1Oc1cccc(Br)c1-c1cc(C(F)F)no1
5 (5=81-100%)
FC(F)(F)c1cnn(-c2ccccc2Oc2ccc(Cl)cn2)c1
5 (5=81-100%)
Fc1cc(Cl)cnc1Oc1ccccc1-n1ccnc1
4 (4=61-80%)
N#Cc1cccc(Oc2ncc(F)cc2F)c1-c1cc(C(F)F)no1
5 (5=81-100%)
Fc1cccc(Oc2cccc(C(F)F)n2)c1-c1cc(C(F)F)no1
5 (5=81-100%)

In the following, a different molecule is considered.
Give the reported value of percentage damage caused to the plant, SOLNI for this record: Fc1cccc(Oc2cc(Cl)ccn2)c1-c1cc(C(F)F)no1
4 (4=61-80%)

---

- System: Solanum nigrum (SOLNI)
- experiment: Post-emergence herbicide test, glasshouse, percentage damage
- Type: in vivo
- testParameters: 1000 g/ha, evaluated after 13 days
experimentalEndpoint: percentage damage caused to the plant, SOLNI

Completed entries (count: 3):
Fc1cc(Cl)cnc1Oc1ccccc1-c1ccsc1
4 (4=61-80%)
Fc1cc(C(F)(F)F)cnc1Oc1cccc(Cl)c1-c1cc(C(F)F)no1
4 (4=61-80%)
Fc1cc(Cl)cnc1Oc1ccccc1-n1cc(Cl)cn1
4 (4=61-80%)

Give the reported value of percentage damage caused to the plant, SOLNI for this record: Fc1cc(Cl)cnc1Oc1cccc(Br)c1-c1cc(C(F)F)no1
5 (5=81-100%)

Give the reported value of percentage damage caused to the plant, SOLNI for this record: Cc1cccc(Oc2ncc(Cl)cc2F)c1-n1cc(C(F)(F)F)cn1
5 (5=81-100%)

Give the reported value of percentage damage caused to the plant, SOLNI for this record: Fc1cccc(Oc2ccc(Br)cn2)c1-c1cc(C(F)F)no1
5 (5=81-100%)

Give the reported value of percentage damage caused to the plant, SOLNI for this record: FC(F)c1cc(-c2c(Br)cccc2Oc2cc(C(F)(F)F)ccn2)on1
4 (4=61-80%)

Give the reported value of percentage damage caused to the plant, SOLNI for this record: O=[N+]([O-])c1ccc(Oc2cccc(Br)c2-c2cc(C(F)F)no2)nc1
4 (4=61-80%)

Give the reported value of percentage damage caused to the plant, SOLNI for this record: Fc1cc(Cl)cnc1Oc1cccc(F)c1-c1ncc(C(F)F)o1
5 (5=81-100%)

Give the reported value of percentage damage caused to the plant, SOLNI for this record: N#Cc1cccc(Oc2ncc(F)cc2F)c1-n1cc(C(F)(F)F)cn1
5 (5=81-100%)

Give the reported value of percentage damage caused to the plant, SOLNI for this record: N#Cc1cc(Cl)cnc1Oc1cccc(Br)c1-c1cc(C(F)F)no1
5 (5=81-100%)

Give the reported value of percentage damage caused to the plant, SOLNI for this record: Fc1cc(Cl)cnc1Oc1ccccc1-n1cncn1
4 (4=61-80%)

Give the reported value of percentage damage caused to the plant, SOLNI for this record: N#Cc1ccc(Oc2cccc(Br)c2-c2cc(C(F)F)no2)nc1
5 (5=81-100%)

---

- Tested on: Echinochloa crus-galli (ECHCG)
- experiment: Pre-emergence herbicide test, glasshouse, percentage damage
- Format: in vivo
- testParameters: rate 1000 g/ha, evaluated after 13 days
- Method: Seeds of a variety of test species are sown in standard soil in pots (Lolium perenne (LOLPE), Solanum nigrum (SOLNI), Amaranthus retoflexus (AMARE), Setaria faberi (SETFA), Echinochloa crus-galli (ECHCG), Ipomoea hederacea (IPOHE)). […] After 13 days for pre and post-emergence, the test is evaluated for the percentage damage caused to the plant. […]
experimentalEndpoint: Pre-emergence Test ECHCG percentage damage (five point scale)

Completed entries (count: 8):
Fc1cc(Br)cnc1Oc1cccc(F)c1-c1cc(C(F)F)no1 [Compound A20]
5 (5=81-100%)
Fc1cc(Cl)cnc1Oc1ccccc1-c1ccsc1 [Compound A70]
1 (1=0-20%)
Fc1cc(C(F)(F)F)cnc1Oc1cccc(F)c1-c1cc(C(F)F)no1 [Compound A21]
5 (5=81-100%)
Fc1cc(Cl)cnc1Oc1cccc(F)c1-c1ncc(C(F)F)o1 [Compound A35]
5 (5=81-100%)
Fc1cccc(Oc2cccc(C(F)(F)F)n2)c1-c1cc(C(F)F)no1 [Compound A47]
1 (1=0-20%)
N#Cc1cccc(Oc2ccc(Cl)cn2)c1-n1cc(C(F)(F)F)cn1 [Compound A32]
5 (5=81-100%)
N#Cc1cccc(Oc2ncc(F)cc2F)c1-n1cc(C(F)(F)F)cn1 [Compound A34]
5 (5=81-100%)
Fc1cc(Cl)cnc1Oc1ccccc1-c1cc(C(F)F)no1 [Compound A43]
5 (5=81-100%)

Answer with Pre-emergence Test ECHCG percentage damage (five point scale) of Fc1cccc(Oc2cccc(Br)c2-c2cc(C(F)F)no2)n1 [Compound A98] measured for Echinochloa crus-galli (ECHCG).
5 (5=81-100%)

Answer with Pre-emergence Test ECHCG percentage damage (five point scale) of N#Cc1cc(F)cnc1Oc1cccc(Cl)c1-c1cc(C(F)F)no1 [Compound A85] measured for Echinochloa crus-galli (ECHCG).
5 (5=81-100%)

Answer with Pre-emergence Test ECHCG percentage damage (five point scale) of N#Cc1ccnc(Oc2cccc(Br)c2-c2cc(C(F)F)no2)c1 [Compound A87] measured for Echinochloa crus-galli (ECHCG).
4 (4=61-80%)

Answer with Pre-emergence Test ECHCG percentage damage (five point scale) of Fc1cc(Cl)cnc1Oc1cccc(F)c1-c1cc(C(F)F)on1 [Compound A30] measured for Echinochloa crus-galli (ECHCG).
5 (5=81-100%)

Answer with Pre-emergence Test ECHCG percentage damage (five point scale) of Fc1cccc(Oc2cc(C(F)(F)F)c(C(F)(F)F)cn2)c1-c1cc(C(F)F)no1 [Compound A78] measured for Echinochloa crus-galli (ECHCG).
1 (1=0-20%)

Answer with Pre-emergence Test ECHCG percentage damage (five point scale) of Cc1cccc(-c2cc(C(F)F)no2)c1Oc1ncc(Cl)cc1F [Compound A94] measured for Echinochloa crus-galli (ECHCG).
3 (3=41-60%)

Answer with Pre-emergence Test ECHCG percentage damage (five point scale) of FC(F)c1cc(-c2c(Cl)cccc2Oc2ccc(C(F)(F)F)cn2)on1 [Compound A110] measured for Echinochloa crus-galli (ECHCG).
4 (4=61-80%)

Answer with Pre-emergence Test ECHCG percentage damage (five point scale) of FC(F)(F)c1ccc(Oc2ccccc2-n2cc(C(F)(F)F)cn2)nc1 [Compound A15] measured for Echinochloa crus-galli (ECHCG).
5 (5=81-100%)

Answer with Pre-emergence Test ECHCG percentage damage (five point scale) of FC(F)c1cc(-c2c(Br)cccc2Oc2cc(C(F)(F)F)ccn2)on1 [Compound A99] measured for Echinochloa crus-galli (ECHCG).
4 (4=61-80%)

Answer with Pre-emergence Test ECHCG percentage damage (five point scale) of FC(F)c1cc(-c2c(Br)cccc2Oc2ccc(Br)cn2)on1 [Compound A106] measured for Echinochloa crus-galli (ECHCG).
5 (5=81-100%)

Answer with Pre-emergence Test ECHCG percentage damage (five point scale) of N#Cc1ccc(Oc2cccc(Br)c2-c2cc(C(F)F)no2)nc1 [Compound A102] measured for Echinochloa crus-galli (ECHCG).
5 (5=81-100%)

Answer with Pre-emergence Test ECHCG percentage damage (five point scale) of FC(F)c1cc(-c2c(Cl)cccc2Oc2ncc(Cl)cc2Cl)on1 [Compound A109] measured for Echinochloa crus-galli (ECHCG).
2 (2=21-40%)

Answer with Pre-emergence Test ECHCG percentage damage (five point scale) of O=[N+]([O-])c1cc(Cl)cnc1Oc1cccc(F)c1-c1cc(C(F)F)no1 [Compound A38] measured for Echinochloa crus-galli (ECHCG).
1 (1=0-20%)

Answer with Pre-emergence Test ECHCG percentage damage (five point scale) of Fc1cc(Cl)cnc1Oc1c(Cl)cccc1-c1cc(C(F)F)no1 [Compound A95] measured for Echinochloa crus-galli (ECHCG).
4 (4=61-80%)
